target-of-assay: C-X-C chemokine receptor type 6 (Homo sapiens)
protocol: Antagonist activity at Prolink-tagged human CXCR6 receptor assessed as inhibition of forskolin-induced cAMP accumulation by DiscoveRx cell based assay relative to control
Type: functional
Design: concentration or dose not given beside the values
assay-setup: concentration not given here
Sequence (O00574 whole entry, looked up): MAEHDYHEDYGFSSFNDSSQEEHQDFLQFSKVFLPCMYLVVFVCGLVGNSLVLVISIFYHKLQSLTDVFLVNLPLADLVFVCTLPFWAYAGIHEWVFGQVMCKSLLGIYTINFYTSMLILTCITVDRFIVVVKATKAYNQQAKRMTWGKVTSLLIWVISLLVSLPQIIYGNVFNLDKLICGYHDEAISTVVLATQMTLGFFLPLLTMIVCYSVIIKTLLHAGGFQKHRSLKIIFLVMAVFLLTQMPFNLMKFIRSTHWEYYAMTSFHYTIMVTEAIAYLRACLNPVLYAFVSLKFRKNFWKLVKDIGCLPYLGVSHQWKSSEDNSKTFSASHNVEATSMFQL
// reported inhibition per item

{"mol-smiles": "COc1cc(C(=O)N[C@@H]2C[C@H]3CCC[C@@H](C2)N3CC(=O)Nc2ccccc2C(F)(F)F)cc(OC)c1OC", "inhibition": "105%"}
{"mol-smiles": "COc1cc(C(=O)N[C@@H]2C[C@H]3CCC[C@@H](C2)N3CC(=O)Nc2cc(Cl)cc(Cl)c2)cc(OC)c1OC", "inhibition": "96%"}

Now for a further compound.
Incoming: Name the reported inhibition value associated with the compound COc1cc(C(=O)N[C@@H]2C[C@H]3CCC[C@@H](C2)N3CC(=O)Nc2cccc(Cl)c2Cl)cc(OC)c1OC
Outgoing: 39 to 78%

###

target-of-assay: UniProt:O00574
protocol: Antagonist activity at Prolink-tagged human CXCR6 receptor assessed as inhibition of CXCL16-induced beta-arrestin recruitment by DiscoveRx cell based assay
Sequence (O00574 whole entry): as the sequence (O00574 whole entry, looked up) above
pIC50: −log10 of the molar value.
measured-endpoint: pIC50

{"mol-smiles": "COc1ccccc1CN1[C@@H]2CCC[C@H]1C[C@H](NC(=O)c1cc(OC)c(OC)c(OC)c1)C2", "target-of-assay": "UniProt:O00574", "pIC50": "< 4.30"}
{"mol-smiles": "COc1cc(C(=O)N[C@@H]2C[C@H]3CCC[C@@H](C2)N3CC(=O)Nc2cccc(Cl)c2Cl)cc(OC)c1OC", "target-of-assay": "UniProt:O00574", "pIC50": "6.80 to 6.92"}
{"mol-smiles": "COc1ccc(C(=O)N[C@@H]2C[C@H]3CCC[C@@H](C2)N3CC(=O)Nc2ccc(Cl)cc2)cc1", "target-of-assay": "UniProt:O00574", "pIC50": "< 4.40"}
{"mol-smiles": "COc1cccc(C(=O)N[C@@H]2C[C@H]3CCC[C@@H](C2)N3CC(=O)Nc2ccc(Cl)cc2)c1", "target-of-assay": "UniProt:O00574", "pIC50": "< 4.40"}
{"mol-smiles": "COc1cc(C(=O)N[C@@H]2C[C@H]3CCC[C@@H](C2)N3CCc2nc3ccccc3s2)cc(OC)c1OC", "target-of-assay": "UniProt:O00574", "pIC50": "< 4.30"}

Consider the record given below.
Incoming: # get_value(readout= pIC50, system= UniProt:O00574) for COc1cc(OC)cc(C(=O)N[C@@H]2C[C@H]3CCC[C@@H](C2)N3CC(=O)Nc2ccc(Cl)cc2)c1
Outgoing: < 4.40

###

inhibition reference
target-of-assay: UniProt O00574
protocol: Antagonist activity at Prolink-tagged human CXCR6 receptor assessed as inhibition of CXCL16-induced beta-arrestin recruitment by DiscoveRx cell based assay relative to control
Design: concentration or dose not given beside the values
assay-setup: concentration not given here
Use % as the unit, but write only the number.

{"mol-smiles": "COc1cc(C(=O)N[C@@H]2C[C@H]3CCC[C@@H](C2)N3Cc2cc3ccccc3[nH]2)cc(OC)c1OC", "inhibition / %": 64}
{"mol-smiles": "COc1cc(C(=O)N[C@@H]2C[C@H]3CCC[C@@H](C2)N3Cc2nc3cccc(Cl)c3s2)cc(OC)c1OC", "inhibition / %": 102}
{"mol-smiles": "COc1cc(C(=O)N[C@@H]2C[C@H]3CCC[C@@H](C2)N3Cc2ccc3ccccc3c2)cc(OC)c1OC", "inhibition / %": 94}
{"mol-smiles": "COc1cc(C(=O)N[C@@H]2C[C@H]3CCC[C@@H](C2)N3CC(=O)Nc2ccc(Cl)cc2)cc(OC)c1OC", "inhibition / %": 101}

Incoming: Item: COc1cc(C(=O)N[C@@H]2C[C@H]3CCC[C@@H](C2)N3CC(=O)Nc2ccc(Cl)cc2Cl)cc(OC)c1OC Test system: UniProt O00574 Read-out: inhibition Value: ?
Outgoing: 105

Incoming: # returns recorded inhibition (system: UniProt O00574) for COc1cc(C(=O)N[C@@H]2C[C@H]3CCC[C@@H](C2)N3CC(=O)Nc2ccccc2C(F)(F)F)cc(OC)c1OC
Outgoing: 101

Incoming: What measured inhibition is associated with COc1cc(C(=O)N[C@@H]2C[C@H]3CCC[C@@H](C2)N3Cc2nc3ccc(Cl)cc3s2)cc(OC)c1OC on UniProt O00574?
Outgoing: 103

Incoming: Provide the documented inhibition with UniProt O00574 as the system for COc1cccc(NC(=O)CN2[C@@H]3CCC[C@H]2C[C@H](NC(=O)c2cc(OC)c(OC)c(OC)c2)C3)c1
Outgoing: 96

Incoming: API: value(readout=inhibition, system=UniProt O00574) for record COc1cc(C(=O)N[C@@H]2C[C@H]3CCC[C@@H](C2)N3Cc2ccc3ccccc3n2)cc(OC)c1OC
Outgoing: 88

Incoming: Please provide the recorded inhibition for COc1cc(C(=O)N[C@@H]2C[C@H]3CCC[C@@H](C2)N3CC(=O)Nc2cc(Cl)ccc2Cl)cc(OC)c1OC , tested on UniProt O00574.
Outgoing: 99

Incoming: Item: COc1ccccc1NC(=O)CN1[C@@H]2CCC[C@H]1C[C@H](NC(=O)c1cc(OC)c(OC)c(OC)c1)C2 Test system: UniProt O00574 Read-out: inhibition Value: ?
Outgoing: 102

Incoming: Notebook: pull reported inhibition for UniProt O00574, entry COc1cc(C(=O)N[C@@H]2C[C@H]3CCC[C@@H](C2)N3CC(=O)Nc2ccccc2F)cc(OC)c1OC
Outgoing: 103

Incoming: Requested read-out inhibition, target or system UniProt O00574, entry COc1cc(C(=O)N[C@@H]2C[C@H]3CCC[C@@H](C2)N3Cc2cc3ccccc3s2)cc(OC)c1OC
Outgoing: 93
